The entries below come with measured normalized growth values attached.
Assay Name: chemical genetic growth profiling, strain panel (AID 1159580);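 note: tested at 20 µM; growth read once vehicle control cultures reached saturation at 30 °C; 1 = growth at the plate median or of vehicle wells; lower values mean less growth of the strain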
Experimental Conditions: S. cerevisiae deletion strains, growth OD, locus YDL214C, strain PRR2, active compounds read low
The whole screen tested about 5,500 compounds, of which about 2,000 (36%) were called active. Not shown: some 18% with an inconclusive outcome. Some of the results follow.
Observable: normalized growth

[[record]]
compound = "O=C1c2ccccc2O[C@@H](c2ccccc2)[C@@H]1NCc1ccccc1"
measurement = "0.867 (inactive)"

[[record]]
compound = "CCCc1cnc(N2CCN(CC(=O)N(c3ccccc3)C3CCCCC3)CC2)nc1"
measurement = "0.997 (inactive)"

[[record]]
compound = "C#Cc1cccc(N=Cc2cc(Cl)cc(Br)c2O)c1"
measurement = "0.103 (active)"

[[record]]
compound = "O=C1c2ccccc2O[C@@H](c2ccccc2)[C@@H]1NC1CCCCC1"
measurement = "0.883 (inactive)"

[[record]]
compound = "Cc1ccc(C(=O)O/N=C(/N)CSc2ncccc2C(F)(F)F)cc1"
measurement = "0.991 (inactive)"

[[record]]
compound = "Cc1nc(-c2ccc(C(F)(F)F)cn2)[nH]c(=O)c1Cl"
measurement = "0.86 (inactive)"

[[record]]
compound = "CCn1nc(C)cc1-c1nnc(Sc2ncc([N+](=O)[O-])s2)n1C"
measurement = "0.981 (inactive)"

[[record]]
compound = "CC(C)(C)c1csc(NNC(=O)c2ccc(Cl)cc2)n1"
measurement = "0.884 (inactive)"

[[record]]
compound = "Cc1cc(C(=O)O/N=C(/N)CSc2ncccc2C(F)(F)F)no1"
measurement = "0.999 (inactive)"

[[record]]
compound = "CC(C)CSc1nnc(CSCc2nc(-c3ccc(Cl)cc3)cs2)n1C"
measurement = "0.94 (inactive)"

[[record]]
compound = "N#CCC(=O)c1cccc(CSc2ccccc2Cl)c1"
measurement = "0.617 (active)"

[[record]]
compound = "CC(C)c1ccc(-c2cc(=O)c3ccccc3o2)cc1"
measurement = "0.814 (inactive)"

[[record]]
compound = "Fc1ccc(N/N=C\\Cc2nnnn2-c2ccccc2)c(F)c1"
measurement = "0.554 (active)"

[[record]]
compound = "O=C(NNC(=O)c1csc(-c2cccs2)n1)c1ccc(C(F)(F)F)cc1"
measurement = "0.657 (active)"

[[record]]
compound = "N/C(CSc1ccc(Cl)cc1)=N/OC(=O)c1ccc(C(F)(F)F)cc1"
measurement = "0.798 (inactive)"

[[record]]
compound = "Clc1ccc(-c2csc(Nc3ccccc3)n2)s1"
measurement = "0.382 (active)"

[[record]]
compound = "O=C(NCc1cccs1)c1csc(Cc2c(Cl)cccc2Cl)n1"
measurement = "0.992 (inactive)"

[[record]]
compound = "COc1ccc(C2CC(c3ccccc3)=Nc3ccccc3S2)cc1OC (configuration not stated)"
measurement = "0.936 (inactive)"

[[record]]
compound = "Cc1csc2ncnc(N/N=C\\c3ccccc3Cl)c12"
measurement = "0.961 (inactive)"

[[record]]
compound = "COc1cc(NC(=S)Nc2ccccc2OC(F)(F)F)cc(C(F)(F)F)c1"
measurement = "0.937 (inactive)"

[[record]]
compound = "CC(C)(C)c1cc2nc(C(F)(F)F)cc(NNC(=O)c3ccc(Cl)cc3)n2n1"
measurement = "1.01 (inactive)"

[[record]]
compound = "N#Cc1c(Br)cnn1Cc1cc(C(F)(F)F)cc(C(F)(F)F)c1"
measurement = "0.863 (inactive)"


---

Assay Name: chemical genetic growth profiling, strain panel (AID 1159580);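 note: tested at 20 µM; growth read once vehicle control cultures reached saturation at 30 °C; 1 = growth at the plate median or of vehicle wells; lower values mean less growth of the strain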
Experimental Conditions: S. cerevisiae deletion strains, growth OD, locus YGR229C, strain SMI1, active compounds read low
In all, about 5,500 compounds went through this assay and about 2,000 (36%) were called active. Roughly 18% stayed inconclusive and do not appear here. The list shows a part of the results.
Below: a set of entries, each annotated with reported normalized growth.
Observable: normalized growth

[[record]]
compound = "C=CCc1ccccc1OCC(O)CNC(C)C (stereo unspecified)"
measurement = 0.974

[[record]]
compound = "CN1CCC23CCCC[C@H]2C1Cc1ccc(O)cc13 (stereo partly specified)"
measurement = 1.04

[[record]]
compound = "C[n+]1cc2c3c(ccc2c2ccc4cc5c(cc4c21)OCO5)OCO3"
measurement = 0.0651

[[record]]
compound = "COc1cc([C@@H]2c3cc4c(cc3[C@H](O)[C@H]3COC(=O)[C@@H]23)OCO4)cc(OC)c1OC"
measurement = 1.02

[[record]]
compound = "COc1cc2c(cc1OC)-c1cc3ccc(OC)c(OC)c3c[n+]1CC2"
measurement = 1.02

[[record]]
compound = "NCCc1ccc(O)cc1"
measurement = 1.01

[[record]]
compound = "O=C(N/N=C\\c1ccccc1Cl)c1cccnc1"
measurement = 1.01

[[record]]
compound = "O=C(O)c1coc2ccccc2c1=O"
measurement = 0.999

[[record]]
compound = "CC(=O)O[C@@H]1CC2C(C)(C)CCC(=O)[C@]2(C)C2CC[C@@]3(C)[C@H](c4ccoc4)OC(=O)C4OC43[C@@]21C (stereo partly specified)"
measurement = 1.02

[[record]]
compound = "COc1cc2cc[n+]3cc4c(OC)c(OC)ccc4cc3c2cc1OC"
measurement = 1.01

[[record]]
compound = "O=C1CCc2cc(OCCCCc3nnnn3C3CCCCC3)ccc2N1"
measurement = 1.01


---

The following compounds are listed with their measured normalized growth values.
Assay Name: chemical genetic growth profiling, strain panel (AID 1159580);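 note: tested at 20 µM; growth read once vehicle control cultures reached saturation at 30 °C; 1 = growth at the plate median or of vehicle wells; lower values mean less growth of the strain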
Experimental Conditions: S. cerevisiae deletion strains, growth OD, locus YHR129C, strain ARP1, active compounds read low
Out of some 5,500 compounds screened, about 2,000 (36%) were called active. Roughly 18% stayed inconclusive and do not appear here. The list shows a part of the results.
Observable: normalized growth

[[record]]
compound = "COc1c2c(cc3c1OCO3)CC[N+](C)=C2"
observable = "normalized growth"
measurement = 1

[[record]]
compound = "CCN(CC)CCNc1ccc(CO)c2sc3ccccc3c(=O)c12"
observable = "normalized growth"
measurement = 0.995

[[record]]
compound = "NS(=O)(=O)c1cc2c(cc1C(F)(F)F)NCNS2(=O)=O"
observable = "normalized growth"
measurement = 1.02

[[record]]
compound = "CN1CCN2c3ccccc3Cc3ccccc3C2C1 (stereo not given)"
observable = "normalized growth"
measurement = 1.01

[[record]]
compound = "CC1=NCCc2c1[nH]c1cc(O)ccc21"
observable = "normalized growth"
measurement = 1

[[record]]
compound = "CNCCC=C1c2ccccc2CCc2ccccc21"
observable = "normalized growth"
measurement = 1.01

[[record]]
compound = "CCCCC1C(=O)N(c2ccccc2)N(c2ccccc2)C1=O"
observable = "normalized growth"
measurement = 0.994

[[record]]
compound = "CCN(CCCCOC(=O)c1ccc(OC)c(OC)c1)C(C)Cc1ccc(OC)cc1 (stereo not given)"
observable = "normalized growth"
measurement = 0.993

[[record]]
compound = "CN1CCOC(c2ccccc2)c2ccccc2C1 (stereo not given)"
observable = "normalized growth"
measurement = 1.01

[[record]]
compound = "CC1=C2C(=CO[C@H](C)[C@H]2C)C(=O)C(C(=O)O)=C1O"
observable = "normalized growth"
measurement = 0.982

[[record]]
compound = "COc1ccc(-c2coc3cc(OC)cc(O)c3c2=O)cc1"
observable = "normalized growth"
measurement = 0.967

[[record]]
compound = "COCCOC(=O)C1=C(C)NC(C)=C(C(=O)OC(C)C)C1c1cccc([N+](=O)[O-])c1 (stereo not given)"
observable = "normalized growth"
measurement = 0.999

[[record]]
compound = "CC(=O)O[C@H]1C[C@H](O[C@H]2[C@@H](O)C[C@H](O[C@H]3[C@@H](O)C[C@H](O[C@H]4CC[C@@]5(C)C(CCC6C5C[C@@H](O)[C@]5(C)[C@@H](C7=CC(=O)OC7)CC[C@]65O)C4)O[C@@H]3C)O[C@@H]2C)O[C@H](C)[C@H]1O[C@@H]1O[C@H](CO)[C@@H](O)[C@H](O)[C@H]1O (stereo not given in full)"
observable = "normalized growth"
measurement = 1.01

[[record]]
compound = "COc1ccc2c(=O)cc(-c3ccccc3OC)oc2c1"
observable = "normalized growth"
measurement = 0.849

[[record]]
compound = "CN(C)CC/C=C1/c2ccccc2COc2ccccc21"
observable = "normalized growth"
measurement = 1.01

[[record]]
compound = "C#CCOS(=O)OC1CCCCC1Oc1ccc(C(C)(C)C)cc1 (stereo not given)"
observable = "normalized growth"
measurement = 1.02

[[record]]
compound = "O=C1CCc2cc(OCCCCc3nnnn3C3CCCCC3)ccc2N1"
observable = "normalized growth"
measurement = 1

[[record]]
compound = "CCCCCCc1ccc(O)cc1O"
observable = "normalized growth"
measurement = 0.949

[[record]]
compound = "NCC(=O)CCC(=O)O"
observable = "normalized growth"
measurement = 1.01

[[record]]
compound = "NCCc1ccc(O)cc1"
observable = "normalized growth"
measurement = 1.01

[[record]]
compound = "CCC/C=C/C=C/[C@@H]1C[C@@H](O)[C@@H](O)C(=O)[C@H]1C=O"
observable = "normalized growth"
measurement = 0.99

[[record]]
compound = "CC(C)[C@]12O[C@H]1[C@@H]1O[C@@]13[C@@]1(C)CCC4=C(COC4=O)[C@@H]1C[C@@H]1O[C@@]13C2=O"
observable = "normalized growth"
measurement = 1.01

[[record]]
compound = "O=c1c(-c2ccccc2)coc2cc(O)cc(O)c12"
observable = "normalized growth"
measurement = 0.795

[[record]]
compound = "CN(C)CCC=C1c2ccccc2C=Cc2ccccc21"
observable = "normalized growth"
measurement = 0.993

[[record]]
compound = "Nc1ccc(C(=O)Oc2ccccc2)c(O)c1"
observable = "normalized growth"
measurement = 0.88

[[record]]
compound = "CCCCCCCCCc1ccc(O)cc1"
observable = "normalized growth"
measurement = 0.173

[[record]]
compound = "COc1ccc2cc3[n+](cc2c1OC)CCc1cc2c(cc1-3)OCO2"
observable = "normalized growth"
measurement = 0.699

[[record]]
compound = "COc1cc([C@@H]2c3cc4c(cc3C(O[C@@H]3O[C@@H]5CO[C@@H](c6cccs6)OC5[C@H](O)[C@H]3O)C3COC(=O)[C@@H]32)OCO4)cc(OC)c1O (stereo not given in full)"
observable = "normalized growth"
measurement = 1

[[record]]
compound = "CC(=O)Nc1cccc(O)c1"
observable = "normalized growth"
measurement = 1.01

[[record]]
compound = "O=C1c2c(O)ccc(O)c2C(=O)c2c(NCCNCCO)ccc(NCCNCCO)c21"
observable = "normalized growth"
measurement = 1.02

[[record]]
compound = "CCC(CCC(C)[C@H]1CCC2C3CC=C4C[C@@H](O)CC[C@]4(C)C3CC[C@@]21C)C(C)C (stereo not given in full)"
observable = "normalized growth"
measurement = 0.994

[[record]]
compound = "CN(C)CCC=C1c2ccccc2CCc2ccccc21"
observable = "normalized growth"
measurement = 1.01

[[record]]
compound = "Cn1nnnc1SCC1=C(C(=O)O)N2C(=O)C(NC(=O)C(O)c3ccccc3)C2SC1 (stereo not given)"
observable = "normalized growth"
measurement = 1.01

[[record]]
compound = "CCCCCCCCCCCCCCCC[n+]1ccccc1"
observable = "normalized growth"
measurement = 0.0537

[[record]]
compound = "CC(=O)Oc1cc(-c2coc3cc(OC(C)=O)c(OC(C)=O)c(OC(C)=O)c3c2=O)cc(OC(C)=O)c1OC(C)=O"
observable = "normalized growth"
measurement = 0.844

[[record]]
compound = "CN1CCc2c(c3ccccc3n2Cc2ccccc2)C1"
observable = "normalized growth"
measurement = 1.01

[[record]]
compound = "CC(C)c1ccc2c(c1O)CC[C@H]1C3=C(CC[C@]21C)C(=O)OC3"
observable = "normalized growth"
measurement = 0.798

[[record]]
compound = "COC(=O)C1=C(C)NC(C)=C(C(=O)OCCN(C)Cc2ccccc2)C1c1cccc([N+](=O)[O-])c1 (stereo not given)"
observable = "normalized growth"
measurement = 0.994

[[record]]
compound = "C[C@@H]1CC[C@@]2(OC1)OC1C(O)C3C4CC[C@H]5C[C@H](O[C@@H]6O[C@H](CO)[C@H](O[C@@H]7O[C@H](CO)[C@@H](O)[C@H](O[C@@H]8OC[C@@H](O)[C@H](O)[C@H]8O)[C@H]7O[C@@H]7O[C@H](CO)[C@H](O)[C@H](O[C@@H]8O[C@H](CO)[C@@H](O)[C@H](O)[C@H]8O)[C@H]7O)[C@H](O)[C@H]6O)[C@H](O)C[C@]5(C)C4CC[C@]3(C)C1[C@@H]2C (stereo not given in full)"
observable = "normalized growth"
measurement = 0.0547

[[record]]
compound = "COc1ccc(-c2coc3cc(O)cc(O)c3c2=O)cc1"
observable = "normalized growth"
measurement = 0.363


meta.source: PubChem BioAssay AID1159580
